- System: L1210 leukemia ip in BDF1 mice, survival T/C
- protocol_details: NCI In Vivo Anticancer Drug Screen. Data for tumor model L1210 Leukemia (intraperitoneal) in B6D2F1 (BDF1) mice
- condition_parameters: endpoint: mean survival time; dose: 25.0 mg/kg/injection; schedule: Q04DX003 (ip); vehicle: Klucel (hydroxypropylcellulose) (HPC); higher = longer survival
- Procedure: The antitumor activity of compounds was measured in mice bearing transplantable tumors. Survival or tumor size were measured and the results are expressed as the measurement made in the treated group (T) divided by the measurement made in the vehicle treated control group (C). The tumor model used in this assay is L1210 Leukemia (intraperitoneal) in B6D2F1 (BDF1) mice
Inconclusive results and toxic doses are left out. Peptide text beside a SMILES is read from it. * marks the point of attachment. Cbz = O=C(OCc1ccccc1)*; CH2Cl = ClC*
T/C: recorded values
measured_quantity: T/C

- O=C(/C=C/c1ccco1)c1ccc([N+](=O)[O-])cc1: 106 % of control
- CC(=O)OC1CC(OC2C(O)CC(OC3C(O)CC(OC4CCC5(C)C(CCC6C5CCC5(C)C(C7=CC(=O)OC7)C(O)CC65O)C4)OC3C)OC2C)OC(C)C1OC1OC(CO)C(O)C(O)C1O (centres undefined): 103 % of control
- NCCCCCCN=C(N)C(N)=NCCCCCCN: 93 % of control
- Clc1ccc2nc(CBr)cnc2c1: 95 % of control
- CC(C)CC(NC(=O)CNC(=O)OCc1ccccc1)C(=O)NC(Cc1ccccc1)C(=O)CCl (stereo not drawn) (Cbz-Gly-Leu-Phe-CH2Cl; configuration not given here): 102 % of control
- CC(C)C(CCN1CCCCC1)(CNC1=NCCN1)c1cccc2ccccc12 (centres undefined): 97 % of control
- Cc1c(CCl)c(C)c(CCl)c(C)c1CCl: 100 % of control
- N#CC(C#N)=Cc1ccsc1: 96 % of control
- CCC(CO)NC(=O)C1C=C2c3cccc4c3c(cn4C)CC2N(C)C1 (centres undefined): 97 % of control
